- System: PPARg:RXRa (NR concentration 180 nM, RXRa partner concentration 90 nM)
- experiment-description: PBM binding z-score (relative to random genomic background probes); higher = stronger binding; sequences stand for … in GC…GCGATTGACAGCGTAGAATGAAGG
Would you kindly list PBM binding z-score for each of these sequences?
Answer with a bare number; do not write a unit.

Data request: Hello, please tell me recorded PBM binding z-score for this one: CCTGCTAGGTCATGGTCAGCTATTCTACAGTATG
Data returned: 2.34

Data request: Hello, please tell me recorded PBM binding z-score for this one: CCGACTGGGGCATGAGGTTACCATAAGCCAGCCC
Data returned: 2.04

Data request: Hello, please tell me recorded PBM binding z-score for this one: CCTTACGGGTCACGCGGTTATAGCACGACGAGCG
Data returned: 6.07

Data request: Hello, please tell me recorded PBM binding z-score for this one: ATCACTAGGTAACCAAGTTCAGTGAATGCCGAAC
Data returned: 1.82

Data request: Hello, please tell me recorded PBM binding z-score for this one: CCGACTGGGGCAACGTTACCATAACGCACAGCCA
Data returned: 1.64

Data request: Hello, please tell me recorded PBM binding z-score for this one: AGAATGAGGTTACCAAAGATCACGGAAACGCTTG
Data returned: 2.79

Data request: Hello, please tell me recorded PBM binding z-score for this one: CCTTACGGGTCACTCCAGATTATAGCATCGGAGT
Data returned: 3.39

Data request: Hello, please tell me recorded PBM binding z-score for this one: CGAACTAGGTCATCCAGGACAGTGAATACATTGA
Data returned: 7.69

Data request: Hello, please tell me recorded PBM binding z-score for this one: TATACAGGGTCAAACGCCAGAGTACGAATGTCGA
Data returned: 7.33

Data request: Hello, please tell me recorded PBM binding z-score for this one: GCAGACAGGTGAAACGCAGGTAACTCATGGTGGC
Data returned: 0.886

Data request: Hello, please tell me recorded PBM binding z-score for this one: GCATATAGGTAATACAAGGAGAAAGTCCGATTGT
Data returned: 1.06

Data request: Hello, please tell me recorded PBM binding z-score for this one: ACTAGCTGGCCAAGGGTCACTCAAGATTAGTCCG
Data returned: 4.25

Data request: Hello, please tell me recorded PBM binding z-score for this one: AGAGTGAGGTTAAGATCAGGGAAACAGAATACAT
Data returned: 1.43

Data request: Hello, please tell me recorded PBM binding z-score for this one: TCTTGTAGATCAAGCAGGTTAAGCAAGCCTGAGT
Data returned: -0.429

Data request: Hello, please tell me recorded PBM binding z-score for this one: CCTTACGGGTCACCGACAGGTTATAGCATTTGGA
Data returned: 6.3

Data request: Hello, please tell me recorded PBM binding z-score for this one: TCATATAGGTAAACAGGTGCAAGTCCGTAAGTTA
Data returned: 1.1

Data request: Hello, please tell me recorded PBM binding z-score for this one: TCTATTAGTTTATTAGGGCAACCGAAACAGCGGA
Data returned: 1.56

Data request: Hello, please tell me recorded PBM binding z-score for this one: GCTCGGAGGACAAGGTCTGAGCTTTGTCCGTAGA
Data returned: -1.05

Data request: Hello, please tell me recorded PBM binding z-score for this one: ATATGTAGGTTACATCCGGGTCATTCATGCTATG
Data returned: 6.16

Data request: Hello, please tell me recorded PBM binding z-score for this one: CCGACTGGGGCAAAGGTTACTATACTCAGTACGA
Data returned: 10.7

Data request: Hello, please tell me recorded PBM binding z-score for this one: GCTGCTAAGTCAACTGATGGTCAGCTAAAGCTCG
Data returned: -0.342

Data request: Hello, please tell me recorded PBM binding z-score for this one: GCTATTAGTTGATAGGGCAACCGAATGATTCTCG
Data returned: 0.713

Data request: Hello, please tell me recorded PBM binding z-score for this one: TCATATATGTAAATGCTAGGTGAAAGTCCGATCT
Data returned: 0.741

Data request: Hello, please tell me recorded PBM binding z-score for this one: CCAACTGGGGCAAGGTTACCATAACGCACAGCCA
Data returned: 4.28

Data request: Hello, please tell me recorded PBM binding z-score for this one: AGTCAAAGTTCATCTAGGGAACGTAAGATATGCT
Data returned: 6.38

Data request: Hello, please tell me recorded PBM binding z-score for this one: ACTCGGAGGCCAAAGGTCAGAGCTACGCCAGTGA
Data returned: 8.85

Data request: Hello, please tell me recorded PBM binding z-score for this one: CCGAGTAGGTTATAGGGCATTCAGGCAACGGTGA
Data returned: 6.04

Data request: Hello, please tell me recorded PBM binding z-score for this one: TCCAGTTGGTCAAAGGTCACACACTCGAAATGCG
Data returned: 11

Data request: Hello, please tell me recorded PBM binding z-score for this one: ACTAGCAGGCCCAGTTTGGGTCACTCAAACAAAG
Data returned: -0.337

Data request: Hello, please tell me recorded PBM binding z-score for this one: CGTCCAAGTTCAAGGTCAGTGAAAGAGACTCGAA
Data returned: 2.06

Data request: Hello, please tell me recorded PBM binding z-score for this one: ACTAGCAGGCCAAGGGTCTCTCAAGATTAGTCCG
Data returned: 2.49

Data request: Hello, please tell me recorded PBM binding z-score for this one: CCTGGGAGGACAGAAGGTCAGAGCTGTCCGCTTT
Data returned: -0.0173

Data request: Hello, please tell me recorded PBM binding z-score for this one: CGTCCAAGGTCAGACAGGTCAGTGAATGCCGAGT
Data returned: 2.72

Data request: Hello, please tell me recorded PBM binding z-score for this one: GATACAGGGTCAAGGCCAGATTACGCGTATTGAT
Data returned: 5.99

---

Would you kindly list PBM binding z-score for each of these sequences?
- System: PPARg:RXRa (NR concentration 180 nM, RXRa partner concentration 90 nM)
- experiment-description: PBM binding z-score (relative to random genomic background probes); higher = stronger binding; sequences stand for … in GC…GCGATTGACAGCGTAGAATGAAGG
Answer with a bare number; do not write a unit.

Data request: Hello, please tell me recorded PBM binding z-score for this one: CCGACTGGGGTAAAGGTTACCATACTCAGTACGA
Data returned: 11.1

Data request: Hello, please tell me recorded PBM binding z-score for this one: CAAACTAGGTCAAAGATCAAAGTCGAGCCAACCA
Data returned: 11.6

Data request: Hello, please tell me recorded PBM binding z-score for this one: TCGAGTGGGTTACCAATGGGGCATTCAGCTTTCT
Data returned: -0.273

Data request: Hello, please tell me recorded PBM binding z-score for this one: CCTCGGAGGCCAGAAGGTCAGAGCTGTCCGCTTT
Data returned: -0.665

Data request: Hello, please tell me recorded PBM binding z-score for this one: CGTCCAAGGTCAAAGGTCAGTGACGAGATGACGG
Data returned: 10.8

Data request: Hello, please tell me recorded PBM binding z-score for this one: AGAATGAGGGCAATGAGTTGATAGCACGGGTGGC
Data returned: 1.79

Data request: Hello, please tell me recorded PBM binding z-score for this one: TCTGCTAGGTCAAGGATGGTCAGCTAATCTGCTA
Data returned: 2.01

Data request: Hello, please tell me recorded PBM binding z-score for this one: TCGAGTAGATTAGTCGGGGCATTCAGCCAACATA
Data returned: -0.45

Data request: Hello, please tell me recorded PBM binding z-score for this one: CCGAGAAGGTTATGGGGCATTCAGGCAACGGTGA
Data returned: 1.15

Data request: Hello, please tell me recorded PBM binding z-score for this one: ATCGAAAGGTCGCGGTGAGTATAGAGAAAGGGAA
Data returned: 4.84

Data request: Hello, please tell me recorded PBM binding z-score for this one: ATACCAAGGTGATCGTGTGGTCGTTGATACTAAC
Data returned: 0.285

Data request: Hello, please tell me recorded PBM binding z-score for this one: AATATTAGTTGAGACGAGGGCAACCGATAGGTTG
Data returned: 0.897

Data request: Hello, please tell me recorded PBM binding z-score for this one: ATCTCTAGGTAACCCAGTTCAGTGAATGCCGAAC
Data returned: 1.52

Data request: Hello, please tell me recorded PBM binding z-score for this one: CAAACTAGGTCCAGAGGTCAAAGTCCGCTTCCCG
Data returned: 5.18

Data request: Hello, please tell me recorded PBM binding z-score for this one: TGTCAAAGTTCAAAGGTAACATAAGTATCCACAC
Data returned: 8.82

Data request: Hello, please tell me recorded PBM binding z-score for this one: CAAACTAGGTCAAAGGACAAAGTCGAGCCAACCA
Data returned: 10.2

Data request: Hello, please tell me recorded PBM binding z-score for this one: TAGCCTAGGTCATTCAGTGGCCAGTATAGAAAGC
Data returned: 1.95

Data request: Hello, please tell me recorded PBM binding z-score for this one: CGTCAAAGTTCAACCAAGGTAACGTAAAGCACGC
Data returned: 5.31

Data request: Hello, please tell me recorded PBM binding z-score for this one: CCTCGGACGACAACAGGAGGTCAGAGCTGCCAGA
Data returned: 0.478

Data request: Hello, please tell me recorded PBM binding z-score for this one: CGAACGGGGGCATGAGTTGATAGCAAATGCCGAT
Data returned: 2.63

Data request: Hello, please tell me recorded PBM binding z-score for this one: CCAGACAGGTGAGAAGGTAACTAAGCCTCGATTA
Data returned: 0.439

Data request: Hello, please tell me recorded PBM binding z-score for this one: ACAGACAGGTGATGAAAGTAACTCAGGCTATCAT
Data returned: 0.596

Data request: Hello, please tell me recorded PBM binding z-score for this one: CGTCCAAGGTCAAGGTAAGTGAAAGAGACTCGAA
Data returned: 5.26

Data request: Hello, please tell me recorded PBM binding z-score for this one: CTTACTGGGCCATTCAGAGGTCATTGATCATATG
Data returned: 4.03

Data request: Hello, please tell me recorded PBM binding z-score for this one: CGAACTAGGTCAGAACAAGACAGTGAAGGATGAT
Data returned: 5.7

Data request: Hello, please tell me recorded PBM binding z-score for this one: GCATATAGGTAATACAAGGTGAAATTCCGATTGT
Data returned: 1.51

Data request: Hello, please tell me recorded PBM binding z-score for this one: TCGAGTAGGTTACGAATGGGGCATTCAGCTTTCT
Data returned: 0.32

Data request: Hello, please tell me recorded PBM binding z-score for this one: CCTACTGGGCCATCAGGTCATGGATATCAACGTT
Data returned: 3.59

Data request: Hello, please tell me recorded PBM binding z-score for this one: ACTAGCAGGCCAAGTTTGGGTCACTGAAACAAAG
Data returned: 0.0239

Data request: Hello, please tell me recorded PBM binding z-score for this one: TCATATAGGTAAATGCTAGGTGAAAGTCCGATCT
Data returned: 1.09

Data request: Hello, please tell me recorded PBM binding z-score for this one: TTACCAAGGTGAATGTCGTTGATCCCTCTGTAGA
Data returned: 0.279

Data request: Hello, please tell me recorded PBM binding z-score for this one: ATCGAAAGGTCGAGGTGAGTACAGAGAAAGGGAA
Data returned: 3.5
